- target_entity: T1, canine OX40L, full length membrane form, expressed on HEK293 cells (canine)
- T1 chain: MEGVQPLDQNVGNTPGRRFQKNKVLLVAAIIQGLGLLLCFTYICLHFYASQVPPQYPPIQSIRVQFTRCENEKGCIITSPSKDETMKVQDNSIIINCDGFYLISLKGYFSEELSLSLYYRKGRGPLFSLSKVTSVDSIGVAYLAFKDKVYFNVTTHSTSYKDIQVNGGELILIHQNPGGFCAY
- assay_overview: cell-based or functional assay
For each of the binders below, state its % Signal Inhibition Rep3.
Numbers only, in %.

Below, each entry is followed by its recorded % Signal Inhibition Rep3 result.
PMX087 (antibody, V domains shown) VH: EVHLVESGGDLVKPGGSLRLSCVASGFTFSNYHMSWVRQAPGKGLQWVAFINSGGSGTSYADAVKGRFTISRDYAKSTLYLQMNSLRAEDTAVYYCASGYIWTHFDYWGQGTLVTVSS VL: SYVLTQLPSVSVTLRQTARITCGGDIIGSKNVYWYQQKLGQAPILIIYRDSNRPTGIPERFSGASSGNTATLTISGALAEDEADYYCQVWDSSTSVFGGGTHLTVL :: 21.6
PMX294 (antibody, V domains shown) VH: EVQLVESGGDLVKPEGSLRLSCAVSGFTFSSNDMSWVRQAPGKGLQWVAYITYDGRSTSYTDIVKGRFTVSRDNAKNTLYLQMNSLRSEDAAVYYCAKAQRGWFFDYWGQGTLVTVSS VL: SYVLTQLPSVSVTLRQTARITCGGDSIGSKNVYWYQQKLGQAPVLIIYDDDSRPSGIPERISGANSGNTATLTISGALAEDEADYYCQVWDSSTGVFGGGTHLTVL :: 53

Alright, here's another binder for you.
Determine from records and report % Signal Inhibition Rep3 for PMX049 (antibody, V domains shown, also called PMX49) VH: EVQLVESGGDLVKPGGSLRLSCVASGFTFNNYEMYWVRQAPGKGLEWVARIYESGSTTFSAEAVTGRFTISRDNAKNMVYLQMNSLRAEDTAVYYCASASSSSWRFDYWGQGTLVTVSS VL: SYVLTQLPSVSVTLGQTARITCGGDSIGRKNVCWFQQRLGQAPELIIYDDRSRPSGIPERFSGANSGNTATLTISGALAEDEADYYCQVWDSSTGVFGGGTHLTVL 90.1
